Assay: In vivo effect against disseminated Gross leukemia in C3H mice
Settings: mouse, in vivo; iv, mice with disseminated Gross leukemia; read-out: maxima tolerated dose (MxTD)
Quick list: MTD per entry.

{"COMPOUND": "COc1cccc2c1C(=O)c1c(O)c3c(c(O)c1C2=O)C[C@@](O)(C(=O)CO)C[C@@H]3O[C@H]1C[C@@H](CN)[C@@H](O)[C@H](C)O1", "MTD, mg/kg": 32.1}
{"COMPOUND": "COc1cccc2c1C(=O)c1c(O)c3c(c(O)c1C2=O)C[C@@](O)(C(C)=O)C[C@@H]3O[C@H]1C[C@H](N)[C@H](O)[C@H](C)O1 [DNR, daunorubicin, reference compound]", "MTD, mg/kg": 15}
